Origin of measurements: paper PMC8348110

- System: Carbapenem-resistant P. aeruginosa (CRPA), clinical isolate
- Type: cell-based, Pseudomonas aeruginosa
- condition.parameters: 1 h
Residues, ends and D or L forms follow the SMILES beside them.
assay.endpoint: MBC Value, CRPA (µg/mL)
Give just the number in µg/mL; leave the unit off.

{"columns": ["molecule", "tested.on", "unit.label", "reported.value"],
 "data": [
  ["CC[C@H](C)[C@H](NC(=O)CNC(=O)CNC(=O)[C@@H](NC(=O)[C@H](C)NC(=O)[C@H](CCSC)NC(=O)[C@H](Cc1ccccc1)NC(=O)[C@@H](NC(=O)CNC(=O)[C@H](Cc1ccccc1)NC(=O)[C@H](CCCCN)NC(=O)CNC(=O)CNC(=O)[C@H](CCCCN)NC(=O)[C@H](CCCCN)NC(=O)[C@H](CCSC)NC(=O)[C@H](CCSC)NC(=O)[C@H](CCCCN)NC(=O)[C@@H](N)CCCCN)[C@@H](C)O)[C@@H](C)CC)C(=O)N[C@@H](CCCNC(=N)N)C(=O)O [AMPR-22] (H-KKMMKKGGKFGTFMAIGGIR-OH)", "Carbapenem-resistant P. aeruginosa (CRPA), clinical isolate", "µg/mL", 4]
]}

Let us examine a further case.
[in] Looking for the measured MBC Value, CRPA of CC[C@H](C)[C@H](NC(=O)CNC(=O)[C@H](CCSC)NC(=O)CNC(=O)[C@@H](NC(=O)[C@H](C)NC(=O)[C@H](CCSC)NC(=O)[C@H](Cc1ccccc1)NC(=O)[C@@H](NC(=O)CNC(=O)[C@H](Cc1ccccc1)NC(=O)[C@H](CCCCN)NC(=O)CNC(=O)CNC(=O)[C@H](CCCCN)NC(=O)[C@H](CCCCN)NC(=O)[C@H](CCSC)NC(=O)[C@H](CCCCN)NC(=O)[C@@H](N)CCCCN)[C@@H](C)O)[C@@H](C)CC)C(=O)N[C@@H](CCCNC(=N)N)C(=O)O [d60M] (H-KKMKKGGKFGTFMAIGMGIR-OH) , can you help?
[out] 4

* * *

- Tested on: Carbapenem-resistant P. aeruginosa (CRPA), clinical isolate
- Assay type: cell-based, Pseudomonas aeruginosa
- condition.parameters: 1 h
Residues, ends and D or L forms follow the SMILES beside them.
Documented MBC Value, CRPA across a set of molecules
Give just the number in µg/mL; leave the unit off.

Reference set (2 entries):
{"columns": ["molecule", "assay.endpoint", "unit.label", "reported.value"],
 "data": [
  ["CC[C@H](C)[C@H](NC(=O)CNC(=O)[C@H](CCSC)NC(=O)CNC(=O)[C@@H](NC(=O)[C@H](C)NC(=O)[C@H](CCSC)NC(=O)[C@H](Cc1ccccc1)NC(=O)[C@@H](NC(=O)CNC(=O)[C@H](Cc1ccccc1)NC(=O)[C@H](CCCCN)NC(=O)CNC(=O)[C@H](CCCCN)NC(=O)[C@H](CCCCN)NC(=O)[C@H](CCSC)NC(=O)[C@H](CCSC)NC(=O)[C@H](CCCCN)NC(=O)[C@@H](N)CCCCN)[C@@H](C)O)[C@@H](C)CC)C(=O)N[C@@H](CCCNC(=N)N)C(=O)O [d64G] (H-KKMMKKGKFGTFMAIGMGIR-OH)", "MBC Value, CRPA", "µg/mL", 4],
  ["CC[C@H](C)[C@H](NC(=O)[C@H](C)NC(=O)[C@H](CCSC)NC(=O)[C@H](Cc1ccccc1)NC(=O)[C@@H](NC(=O)CNC(=O)[C@H](Cc1ccccc1)NC(=O)[C@H](CCCCN)NC(=O)CNC(=O)CNC(=O)[C@H](CCCCN)NC(=O)[C@H](CCCCN)NC(=O)[C@H](CCSC)NC(=O)[C@H](CCSC)NC(=O)[C@H](CCCCN)NC(=O)[C@@H](N)CCCCN)[C@@H](C)O)C(=O)NCC(=O)N[C@@H](CCSC)C(=O)NCC(=O)N[C@@H](CCCNC(=N)N)C(=O)O [d77I] (H-KKMMKKGGKFGTFMAIGMGR-OH)", "MBC Value, CRPA", "µg/mL", 8]
]}

[in] Looking for the measured MBC Value, CRPA of CC[C@H](C)[C@H](NC(=O)CNC(=O)[C@H](CCSC)NC(=O)CNC(=O)[C@@H](NC(=O)[C@H](C)NC(=O)[C@H](CCSC)NC(=O)[C@H](Cc1ccccc1)NC(=O)[C@@H](NC(=O)CNC(=O)[C@H](Cc1ccccc1)NC(=O)[C@H](CCCCN)NC(=O)CNC(=O)CNC(=O)[C@H](CCCCN)NC(=O)[C@H](CCCCN)NC(=O)[C@H](CCSC)NC(=O)[C@H](CCSC)NC(=O)[C@H](CCCCN)NC(=O)[C@@H](N)CCCCN)[C@@H](C)O)[C@@H](C)CC)C(=O)O [d78R] (H-KKMMKKGGKFGTFMAIGMGI-OH) , can you help?
[out] 16

* * *

- System: Carbapenem-resistant P. aeruginosa (CRPA), clinical isolate
- Type: cell-based, Pseudomonas aeruginosa
- condition.parameters: 1 h
Residues, ends and D or L forms follow the SMILES beside them.
assay.endpoint: MBC Value, CRPA (µg/mL)
Give just the number in µg/mL; leave the unit off.

[in] Request body: readout MBC Value, CRPA, system Carbapenem-resistant P. aeruginosa (CRPA), clinical isolate, query CC[C@H](C)[C@H](NC(=O)[C@H](C)NC(=O)[C@H](CCSC)NC(=O)[C@H](Cc1ccccc1)NC(=O)[C@@H](NC(=O)CNC(=O)[C@H](Cc1ccccc1)NC(=O)[C@H](CCCCN)NC(=O)CNC(=O)CNC(=O)[C@H](CCCCN)NC(=O)[C@H](CCCCN)NC(=O)[C@H](CCSC)NC(=O)[C@H](CCSC)NC(=O)[C@H](CCCCN)NC(=O)[C@@H](N)CCCCN)[C@@H](C)O)C(=O)NCC(=O)N[C@@H](CCSC)C(=O)N[C@H](C(=O)N[C@@H](CCCNC(=N)N)C(=O)O)[C@@H](C)CC [d76G] (H-KKMMKKGGKFGTFMAIGMIR-OH) . Return the value.
[out] 4

* * *

- Tested on: Carbapenem-resistant P. aeruginosa (CRPA), clinical isolate
- Assay type: cell-based, Pseudomonas aeruginosa
- condition.parameters: 1 h
Residues, ends and D or L forms follow the SMILES beside them.
assay.endpoint: MBC Value, CRPA (µg/mL)
Give just the number in µg/mL; leave the unit off.

{"columns": ["molecule", "unit.label", "MBC Value, CRPA"],
 "data": [
  ["CC[C@H](C)[C@H](NC(=O)CNC(=O)[C@H](CCSC)NC(=O)CNC(=O)[C@@H](NC(=O)[C@H](C)NC(=O)[C@H](Cc1ccccc1)NC(=O)[C@@H](NC(=O)CNC(=O)[C@H](Cc1ccccc1)NC(=O)[C@H](CCCCN)NC(=O)CNC(=O)CNC(=O)[C@H](CCCCN)NC(=O)[C@H](CCCCN)NC(=O)[C@H](CCSC)NC(=O)[C@H](CCSC)NC(=O)[C@H](CCCCN)NC(=O)[C@@H](N)CCCCN)[C@@H](C)O)[C@@H](C)CC)C(=O)N[C@@H](CCCNC(=N)N)C(=O)O [d71M] (H-KKMMKKGGKFGTFAIGMGIR-OH)", "µg/mL", 8],
  ["CC[C@H](C)[C@H](NC(=O)CNC(=O)[C@H](CCSC)NC(=O)CNC(=O)[C@@H](NC(=O)[C@H](C)NC(=O)[C@H](CCSC)NC(=O)[C@H](Cc1ccccc1)NC(=O)[C@@H](NC(=O)CNC(=O)[C@H](CCCCN)NC(=O)CNC(=O)CNC(=O)[C@H](CCCCN)NC(=O)[C@H](CCCCN)NC(=O)[C@H](CCSC)NC(=O)[C@H](CCSC)NC(=O)[C@H](CCCCN)NC(=O)[C@@H](N)CCCCN)[C@@H](C)O)[C@@H](C)CC)C(=O)N[C@@H](CCCNC(=N)N)C(=O)O [d67F] (H-KKMMKKGGKGTFMAIGMGIR-OH)", "µg/mL", 8],
  ["CC[C@H](C)[C@H](NC(=O)CNC(=O)[C@H](CCSC)NC(=O)CNC(=O)[C@@H](NC(=O)[C@H](C)NC(=O)[C@H](CCSC)NC(=O)[C@H](Cc1ccccc1)NC(=O)[C@@H](NC(=O)CNC(=O)[C@H](Cc1ccccc1)NC(=O)[C@@H](NC(=O)CNC(=O)CNC(=O)[C@H](CCCCN)NC(=O)[C@H](CCCCN)NC(=O)[C@H](CCSC)NC(=O)[C@H](CCSC)NC(=O)[C@H](CCCCN)NC(=O)[C@@H](N)CCCCN)[C@@H](C)O)[C@@H](C)O)[C@@H](C)CC)C(=O)N[C@@H](CCCNC(=N)N)C(=O)O [K3] (H-KKMMKKGGTFGTFMAIGMGIR-OH)", "µg/mL", 8],
  ["CC[C@H](C)[C@H](NC(=O)CNC(=O)[C@H](CCSC)NC(=O)[C@@H](NC(=O)[C@H](C)NC(=O)[C@H](CCSC)NC(=O)[C@H](Cc1ccccc1)NC(=O)[C@@H](NC(=O)CNC(=O)[C@H](Cc1ccccc1)NC(=O)[C@H](CCCCN)NC(=O)CNC(=O)CNC(=O)[C@H](CCCCN)NC(=O)[C@H](CCCCN)NC(=O)[C@H](CCSC)NC(=O)[C@H](CCSC)NC(=O)[C@H](CCCCN)NC(=O)[C@@H](N)CCCCN)[C@@H](C)O)[C@@H](C)CC)C(=O)N[C@@H](CCCNC(=N)N)C(=O)O [d74G] (H-KKMMKKGGKFGTFMAIMGIR-OH)", "µg/mL", 8],
  ["CC[C@H](C)[C@H](NC(=O)CNC(=O)[C@H](CCSC)NC(=O)CNC(=O)[C@@H](NC(=O)[C@H](C)NC(=O)[C@H](CCSC)NC(=O)[C@H](Cc1ccccc1)NC(=O)[C@@H](NC(=O)CNC(=O)[C@H](Cc1ccccc1)NC(=O)[C@H](CCCCN)NC(=O)CNC(=O)CNC(=O)[C@H](CCCCN)NC(=O)[C@H](CCSC)NC(=O)[C@H](CCSC)NC(=O)[C@H](CCCCN)NC(=O)[C@@H](N)CCCCN)[C@@H](C)O)[C@@H](C)CC)C(=O)N[C@@H](CCCNC(=N)N)C(=O)O [d62K] (H-KKMMKGGKFGTFMAIGMGIR-OH)", "µg/mL", 8]
]}

[in] Request body: readout MBC Value, CRPA, system Carbapenem-resistant P. aeruginosa (CRPA), clinical isolate, query CC[C@H](C)[C@H](NC(=O)CNC(=O)[C@H](CCSC)NC(=O)CNC(=O)[C@@H](NC(=O)[C@H](C)NC(=O)[C@H](CCSC)NC(=O)[C@H](Cc1ccccc1)NC(=O)[C@@H](NC(=O)CNC(=O)[C@H](Cc1ccccc1)NC(=O)[C@H](CCCCN)NC(=O)CNC(=O)CNC(=O)[C@H](CCCCN)NC(=O)[C@H](CCCCN)NC(=O)[C@H](CCSC)NC(=O)[C@H](CCSC)NC(=O)[C@@H](N)CCCCN)[C@@H](C)O)[C@@H](C)CC)C(=O)N[C@@H](CCCNC(=N)N)C(=O)O [d58K] (H-KMMKKGGKFGTFMAIGMGIR-OH) . Return the value.
[out] 8

[in] Request body: readout MBC Value, CRPA, system Carbapenem-resistant P. aeruginosa (CRPA), clinical isolate, query CC[C@H](C)[C@H](NC(=O)CNC(=O)[C@H](CCSC)NC(=O)CNC(=O)[C@@H](NC(=O)[C@H](C)NC(=O)[C@H](CCSC)NC(=O)[C@H](Cc1ccccc1)NC(=O)CNC(=O)[C@H](Cc1ccccc1)NC(=O)[C@H](CCCCN)NC(=O)CNC(=O)CNC(=O)[C@H](CCCCN)NC(=O)[C@H](CCCCN)NC(=O)[C@H](CCSC)NC(=O)[C@H](CCSC)NC(=O)[C@H](CCCCN)NC(=O)[C@@H](N)CCCCN)[C@@H](C)CC)C(=O)N[C@@H](CCCNC(=N)N)C(=O)O [d69T] (H-KKMMKKGGKFGFMAIGMGIR-OH) . Return the value.
[out] 4

[in] Request body: readout MBC Value, CRPA, system Carbapenem-resistant P. aeruginosa (CRPA), clinical isolate, query CC[C@H](C)[C@H](NC(=O)CNC(=O)[C@H](CCSC)NC(=O)CNC(=O)[C@@H](NC(=O)[C@H](C)NC(=O)[C@H](CCSC)NC(=O)[C@H](Cc1ccccc1)NC(=O)[C@@H](NC(=O)CNC(=O)[C@H](Cc1ccccc1)NC(=O)[C@H](CCCCN)NC(=O)CNC(=O)CNC(=O)[C@H](CCCCN)NC(=O)[C@H](CCCCN)NC(=O)[C@H](CCSC)NC(=O)[C@H](CCSC)NC(=O)[C@H](CCCCN)NC(=O)[C@@H](N)CCCCN)[C@@H](C)O)[C@@H](C)CC)C(=O)N[C@@H](CCCNC(=N)N)C(=O)O [AMPR-21] (H-KKMMKKGGKFGTFMAIGMGIR-OH) . Return the value.
[out] 4
